Biological target: T1, M1BP (UniProt Q9VHM3 1-418)
T1 sequence: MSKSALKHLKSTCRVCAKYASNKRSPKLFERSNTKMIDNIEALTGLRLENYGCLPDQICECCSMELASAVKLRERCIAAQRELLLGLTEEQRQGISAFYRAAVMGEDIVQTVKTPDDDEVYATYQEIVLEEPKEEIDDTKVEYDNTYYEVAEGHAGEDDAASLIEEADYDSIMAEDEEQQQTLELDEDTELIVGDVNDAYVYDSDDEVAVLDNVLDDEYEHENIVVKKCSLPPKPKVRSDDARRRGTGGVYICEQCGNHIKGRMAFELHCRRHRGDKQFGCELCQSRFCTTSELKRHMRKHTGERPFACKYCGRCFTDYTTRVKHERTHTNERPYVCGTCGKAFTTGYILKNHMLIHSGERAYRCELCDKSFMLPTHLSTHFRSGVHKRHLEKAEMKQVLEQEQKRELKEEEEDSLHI
Experiment: pull-down
Metric Name: binding result

RpL30 mutMotif1 (-52 to +8) (dsDNA) DNA 1: CCCGTCCGTCAGAGCAACACAAACGTGGTACCCATTTCCGCCTGTTCTTCCTCTTTCTTT DNA 2: AAAGAAAGAGGAAGAACAGGCGGAAATGGGTACCACGTTTGTGTTGCTCTGACGGACGGG; no binding
RpL30 wtMotif1 (-52 to +8) (dsDNA) DNA 1: CCCGTCGGTCACACCAACACAAACGTGGTACCCATTTCCGCCTGTTCTTCCTCTTTCTTT DNA 2: AAAGAAAGAGGAAGAACAGGCGGAAATGGGTACCACGTTTGTGTTGGTGTGACCGACGGG; binds
RpLP1 mutMotif1 (-36 to +14) (dsDNA) DNA 1: TTCGTCATCGGCGCCGTCAGAGTGCATATCAACTGCTCTTTCCGGTTTAG DNA 2: CTAAACCGGAAAGAGCAGTTGATATGCACTCTGACGGCGCCGATGACGAA; no binding
RpLP1 wtMotif1 (-36 to +14) (dsDNA) DNA 1: TTCGTCATCGGCGCGGTCACACTGCATATCAACTGCTCTTTCCGGTTTAG DNA 2: CTAAACCGGAAAGAGCAGTTGATATGCAGTGTGACCGCGCCGATGACGAA; binds
